system under test: T1, human CD19 (human, UniProt P15391 20-556)
T1 construct: whole, on cells; also called Cluster of Differentiation 19; hPro1
T1 sequence (looked up): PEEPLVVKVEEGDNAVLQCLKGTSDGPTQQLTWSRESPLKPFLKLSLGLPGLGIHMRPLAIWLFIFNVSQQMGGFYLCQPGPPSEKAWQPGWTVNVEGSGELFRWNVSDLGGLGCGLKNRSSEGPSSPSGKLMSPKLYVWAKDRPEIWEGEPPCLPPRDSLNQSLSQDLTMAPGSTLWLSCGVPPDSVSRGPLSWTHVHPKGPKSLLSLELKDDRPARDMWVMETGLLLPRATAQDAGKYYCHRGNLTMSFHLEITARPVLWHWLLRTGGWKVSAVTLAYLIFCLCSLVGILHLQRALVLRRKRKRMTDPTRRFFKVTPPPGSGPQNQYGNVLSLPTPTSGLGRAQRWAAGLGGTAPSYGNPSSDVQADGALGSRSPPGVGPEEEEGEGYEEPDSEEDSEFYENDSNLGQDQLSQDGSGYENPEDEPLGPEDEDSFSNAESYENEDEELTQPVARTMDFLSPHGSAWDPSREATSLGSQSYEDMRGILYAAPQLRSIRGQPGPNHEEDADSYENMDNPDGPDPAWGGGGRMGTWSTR
measurement description: flow cytometry on CD19 transfected CHO-K1 cells, Scatchard analysis
Experimental: The CD19 transfected CHO-K1 cells or Ramos cells were plated in a 96-well plates (BD) at a density of 5×10⁴ cells/well. Antibodies to be tested were serially diluted in the staining buffer (1×PBS/1% BSA) and incubated with cells at 4° C. for 1 hr. The affinity of selected candidate antibodies were tested on CD19 transfected CHO-K1 cell by flow cytometry.
experimental endpoint: pKd
Please note pKd is a logarithmic value: minus log10 of concentration in mol/L. Answer with that number alone.

1. WBP7011-4.87.6 (antibody, V domains shown) VH: QVQLQQSGAELVRPGSSVKISCKASGYAFSTYWMNWVKQRPGQGLEWIGQIYPGDDDTKYNGKFKGKASLTADKSSSTAYMQLISLTSEDSAVYFCARRYFRYDYWYSDVWGAGTTVTVTS VL: DIQMTQTTSSLSASLGDRVTISCRASQDISNYLNWYQQKPDGTVKLLIYYTSRLHSGVPARFSGSGSGTDYSLTISNLEQEDIATYFCHQGNTLPLTFGAGTKLELK ... 10.02

Next binder, please.
[Q] Report pKd for WBP7011_4.108.3 (antibody, V domains shown, also called W7011-4.108.3) VH: EVQLQQSGPELVKPGASVEMSCKASGYTFTSYVIHWLKQKPGQGLEWIGYINPYNDGAEYNEKFKGKATLTSDKSSSTAYMDLNSLTSEDSAVYYCARGPYYYGSSPFDYWGQGTTLTVSS VL: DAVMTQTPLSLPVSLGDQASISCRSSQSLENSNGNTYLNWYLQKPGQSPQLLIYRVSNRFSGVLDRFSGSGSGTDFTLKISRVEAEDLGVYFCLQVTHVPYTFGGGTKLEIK please.
[A] 9.60

# credit: patent US20200289563A1
